Test system: P. falciparum stage V gametocytes
Set-up: BacTiter-Glo ATP luminescence viability of purified stage V gametocytes in 384-well plates, per cent inhibition versus DMSO
Details: 48 h, 5 µM; inhibitor
Out of some 13,000 compounds screened, about 3,200 (25%) showed an effect of 50% or more. The list shows a part of the results.
# cutoff 20% applies to % Inhibition; >= gives True, < gives False

| Compound | Assigned Category |
| --- | --- |
| CCc1cc2c3c(N)nc(N)nc3ccc2n1C(C)(C)C [TCMDC-137306] | True |
| CCOC(=O)CCCCCNC[C@H](O)c1ccccc1 [TCMDC-131776] | False |
| Cc1ncccc1-c1cccc2c(NC(=O)Nc3ccc4nccc(N5CCN(C)CC5)c4c3)cccc12 [TCMDC-139369] | False |
| CCCc1cc2c3c(N)nc(N)nc3ccc2n1CC [TCMDC-137946] | True |
| O=C(Nc1ccc(Cl)cc1F)NC1CCN(CCCCCNC(=O)C2CC2c2ccc(Cl)c(Cl)c2)CC1 (stereo not drawn) [TCMDC-136258] | True |
| CCNc1cc(C(=O)N[C@@H](Cc2ccccc2)[C@H](O)CNCCc2ccccc2)cc(N2CCCC2=O)c1 [TCMDC-141682] | True |
| CN(Cc1ccncc1)C(Cc1ccccc1)C1CCN(Cc2ccc(O)c(Cl)c2)CC1 (stereo not drawn) [TCMDC-124648] | False |
| COc1ccc(Cc2c(Cl)nc3nc(N)nc(N)c3c2C)cc1 [TCMDC-138055] | False |
| CN1CCN(c2ccnc3ccc(NC(=O)Nc4ccc(-c5ccncc5)c5ccccc45)cc23)CC1 [TCMDC-139251] | False |
| CC(C)n1ncc2c3c(N)nc(N)nc3ccc21 [TCMDC-137866] | False |
| O=C(Nc1ccc(Cl)cc1Cl)N[C@H]1CCN(CCCCCNC(=O)C2CC2c2ccc(Cl)c(Cl)c2)C1 (stereo partly drawn) [TCMDC-136268] | False |
| CCn1c(C(C)C)cc2c3c(N)nc(N)nc3ccc21 [TCMDC-137856] | True |

###

Tested on: P. falciparum stage V gametocytes
Set-up: BacTiter-Glo ATP luminescence viability of purified stage V gametocytes in 384-well plates, per cent inhibition versus DMSO
Settings: 48 h, 5 µM; inhibitor
Screen size: about 13,000 compounds; about 3,200 (25%) showed an effect of 50% or more. Some of the results follow.
Each entry below lists one item and its recorded % Inhibition value.
Measured Attribute: % Inhibition (%)

| Molecule | Measured Attribute | Units Text | Observed |
| --- | --- | --- | --- |
| NC(=O)Nc1ccc2c(Nc3ccc(OCc4ccccc4)cc3)ncnc2c1 | % Inhibition | % | 13.28 |
| CN1CCN(c2ccnc3ccc(NC(=O)Nc4cccc5c(Br)cccc45)cc23)CC1 | % Inhibition | % | 3.223 |
| COc1ccc2nccc([C@@H](O)CN3CCC(NC(=O)C(c4cc5ccccc5o4)N4CCN(c5ccccc5OC)CC4)CC3)c2c1 (some centres unmarked) | % Inhibition | % | 13.75 |
| CCc1ccc(CNCC(CCNc2cc(=O)c3ccccc3[nH]2)NCc2cc(Br)cc(Br)c2)o1 (centres unmarked) | % Inhibition | % | 67.8 |
| O=c1cc(NCCC(CNCc2cc3ccccc3o2)NCc2cc(Br)cc(Br)c2)[nH]c2ccccc12 (centres unmarked) | % Inhibition | % | 70.19 |
| Cc1cc(O)c(-c2cc(C(=O)Nc3cccnc3)[nH]n2)cc1C | % Inhibition | % | 6.508 |
| Cc1cc(CNCC(CCNc2cc(=O)c3ccccc3[nH]2)NCc2cc(Br)cc(Br)c2)oc1C (centres unmarked) | % Inhibition | % | 61.99 |
| CC(Cc1ccc(OCCCCOc2ccccc2)cc1)NCCC1CCCN1C (centres unmarked) | % Inhibition | % | 116.2 |
| Cc1cc(O)c2c(c1)OC(C)(C)C=C2C1=CCN(Cc2ccccc2)CC1 | % Inhibition | % | -37.74 |
| O=C(Nc1cc(Cl)cc(Cl)c1)c1cc(Cl)c(=O)n(Cc2cccc(Cl)c2)c1 | % Inhibition | % | -55.71 |
| CC(C)N(CCOc1ccc2c(c1)N(C(=O)Nc1ccc(Cl)c(Cl)c1)CC2)C(C)C | % Inhibition | % | 8.096 |
| COc1cc2nc(NCCc3ccccc3)nc(NCc3cnn(C)c3C)c2cc1OC | % Inhibition | % | 100.1 |
| c1ccc(CNc2nc(NCCN3CCCCC3)nc3ccccc23)cc1 | % Inhibition | % | 18.64 |
| Cc1[nH]c2cc(Cl)ccc2c1C1=CCN(CCN2CCOc3c(Br)cccc3C2=O)CC1 | % Inhibition | % | -20.54 |

###

System: P. falciparum stage V gametocytes
Set-up: BacTiter-Glo ATP luminescence viability of purified stage V gametocytes in 384-well plates, per cent inhibition versus DMSO
Settings: 48 h, 5 µM; inhibitor
Among all 13,000 compounds or so, about 3,200 (25%) showed an effect of 50% or more. Some of the results follow.
# cutoff -20% applies to % Inhibition; >= gives Y, < gives N

| Chemical Structure | Experimental System | Assigned Category |
| --- | --- | --- |
| Cc1[nH]n(-c2cccc(Cl)c2)c(=O)c1-c1ccc(Cl)cc1 | P. falciparum stage V gametocytes | N |
| COc1ccc2nccc([C@@H](O)CN3CCC(NC(=O)Cn4nc(-c5ccc(C(F)(F)F)cc5)ccc4=O)CC3)c2c1 | P. falciparum stage V gametocytes | Y |
| CCc1ccc(O)c(-c2cc(C(=O)Nc3cccnc3)[nH]n2)c1 | P. falciparum stage V gametocytes | N |
| Cc1cc(N2CCC(NS(=O)(=O)c3cccc4cccnc34)CC2)nc(Nc2cccc(C#N)c2)n1 | P. falciparum stage V gametocytes | Y |
| COc1ccc(-c2nc3c(NCc4ccccc4)nccc3[nH]2)c(OC)c1 | P. falciparum stage V gametocytes | Y |
| NC(N)=NC(=O)Nc1cc(Cl)c(Cl)c(Cl)c1 | P. falciparum stage V gametocytes | Y |
| COc1cc(CNCCCNc2nc3ccsc3c(=O)[nH]2)c2[nH]cc(Cl)c2c1 | P. falciparum stage V gametocytes | N |
| CCOC(=O)C(C)(C)Oc1ccc(C(=C2CC(C)(C)CC(C)(C)C2)c2ccc(O)cc2)cc1 | P. falciparum stage V gametocytes | N |
| Nc1nc(N)c2c(ccc3c2ccn3Cc2ccc(-c3ccccc3)cc2)n1 | P. falciparum stage V gametocytes | Y |
| N#Cc1ccc(Cn2ccc3c4c(N)nc(N)nc4ccc32)cc1 | P. falciparum stage V gametocytes | Y |
| COc1ccc(C2=CCN(c3ccc(Cl)c(Cl)c3)C2=O)cc1OCCN1CCCCC1 | P. falciparum stage V gametocytes | Y |

###

Tested on: P. falciparum stage V gametocytes
Set-up: BacTiter-Glo ATP luminescence viability of purified stage V gametocytes in 384-well plates, per cent inhibition versus DMSO
Settings: 48 h, 5 µM; inhibitor
Hit rate of the full screen: of about 13,000 compounds, about 3,200 (25%) showed an effect of 50% or more. The list shows a part of the results.
# cutoff -10% applies to % Inhibition; >= gives MET, < gives NOT MET

| Compound | Assigned Category |
| --- | --- |
| CC(C)NCc1ccc(-c2cccc(NC(=O)c3cccc(C#N)c3)c2)cc1 | MET |
| O=C(C1CCN(C(c2ccccc2)c2ccc(Cl)c(Cl)c2)CC1)N1CC=CC1 (stereo not drawn) | NOT MET |
| Cc1cc(-c2cccc3c(NC(=O)N4CCc5cc6nccc(N7CCN8CCC[C@H]8C7)c6cc54)cccc23)cc(C)n1 | NOT MET |
| CC(C)NCc1ccc(-c2cccc(NC(=O)c3ccc(Cl)cc3)c2)cc1 | NOT MET |
| COCCn1c(SC(C)C(=O)Nc2cc(C(F)(F)F)ccc2Cl)nc2ccccc2c1=O (stereo not drawn) | MET |
| N=C(N)c1nc2ccccc2s1 | MET |
| CN1CCC(c2c[nH]c3ccc(NC(=O)Nc4ccc(-c5ccncc5)c(Cl)c4Cl)cc23)CC1 | NOT MET |
| CC(C)NCc1ccc(-c2ccc(NC(=O)c3cccc(C#N)c3)cc2)cc1 | MET |
| CC(C)N(C(=O)CSc1nc2cc(Cl)ccc2c(=O)n1Cc1ccccc1)C(C)C | MET |
| N#Cc1ccc2c(c1)CCN(CCC1CCC(NC(=O)c3cc4cccc(Cl)c4[nH]3)CC1)CC2 (stereo not drawn) | MET |
| CC(C)NCc1ccc(-c2cccc(NC(=O)c3ccc(F)cc3)c2)cc1 | MET |
| CC(C)NCc1ccc(-c2cccc(NC(=O)c3ccc(C#N)cc3)c2)cc1 | MET |

###

System: P. falciparum stage V gametocytes
Set-up: BacTiter-Glo ATP luminescence viability of purified stage V gametocytes in 384-well plates, per cent inhibition versus DMSO
Details: 48 h, 5 µM; inhibitor
The campaign covered roughly 13,000 compounds. About 3,200 (25%) showed an effect of 50% or more. Some of the results follow.
Each entry below lists one item and its recorded % Inhibition value.

| Molecule | % Inhibition / % |
| --- | --- |
| O=C(Nc1cccc(C(F)(F)F)c1)Nc1nc2ccc([N+](=O)[O-])cc2s1 [TCMDC-123631] | 27.05 |
| NCc1ccc(CNCc2cccc(-c3ccc(-c4nc5ccccc5[nH]4)cc3)c2)cc1 [TCMDC-132815] | 106.4 |
| c1ccc(CN2CCCN(c3ccc4c(c3)CCN(Cc3ccc(-c5ncc[nH]5)cc3)CC4)CC2)cc1 [TCMDC-136549] | 6.085 |
| Oc1ccc(-c2ccccc2)cc1CN1CCCCC1 [TCMDC-125510] | 85.49 |
| CN1CCCN(Cc2ccc(-c3cccc(NC(=O)c4ccc(C#N)cc4)c3)cc2)CC1 [TCMDC-132637] | 9.146 |
| Cc1cccc(C(=O)Nc2ccc(N3CCCN(Cc4cccc(O)c4)CC3)cc2)c1 [TCMDC-134958] | -89.08 |
| O=C(NC1CCN(Cc2ccccc2O)C1)c1ccc(Cl)c(Cl)c1 (stereo not drawn) [TCMDC-141737] | 3.103 |
| COc1ccc(NC(=O)Nc2ccc(-c3ccncc3)c(Cl)c2)cc1N1CCN(C)CC1 [TCMDC-139134] | -28.75 |
| CN1CC=C(c2c[nH]c3ccc(Sc4ccccc4)cc23)CC1 [TCMDC-138969] | 5.413 |
| Fc1ccc2nc(-c3cccc(-c4cccc(CNCc5ccccc5)c4)c3)[nH]c2c1 [TCMDC-132699] | -56.67 |
| c1ccc(CNCc2cccc(-c3cccc(-c4nc5ccccc5[nH]4)c3)c2)cc1 [TCMDC-132698] | -20.89 |
| NCc1ccc(CNCc2cccc(-c3cccc(-c4nc5ccc(F)cc5[nH]4)c3)c2)cc1 [TCMDC-132816] | 98.03 |
| CCN(CCCN1CCCCC1)c1cc(C)nc(Nc2ccc(C)c(F)c2)n1 [TCMDC-132437] | 25.13 |
| O=C(Nc1ccc(-c2nc3ccccc3[nH]2)cc1)c1cccc(S(=O)(=O)N2CCOCC2)c1 [TCMDC-125263] | -3.664 |
| CC(C)c1ccc(O)cc1Nc1ccnc2ccc(C(F)(F)F)cc12 [TCMDC-138278] | -32.37 |

Value source: paper PMC4552634
